Target: integrin α5β1 (soluble, SPR) (Homo sapiens, UniProt P08648;P05556 42-995;21-728)
Sequence (P08648 42-995, chain 1 of 2): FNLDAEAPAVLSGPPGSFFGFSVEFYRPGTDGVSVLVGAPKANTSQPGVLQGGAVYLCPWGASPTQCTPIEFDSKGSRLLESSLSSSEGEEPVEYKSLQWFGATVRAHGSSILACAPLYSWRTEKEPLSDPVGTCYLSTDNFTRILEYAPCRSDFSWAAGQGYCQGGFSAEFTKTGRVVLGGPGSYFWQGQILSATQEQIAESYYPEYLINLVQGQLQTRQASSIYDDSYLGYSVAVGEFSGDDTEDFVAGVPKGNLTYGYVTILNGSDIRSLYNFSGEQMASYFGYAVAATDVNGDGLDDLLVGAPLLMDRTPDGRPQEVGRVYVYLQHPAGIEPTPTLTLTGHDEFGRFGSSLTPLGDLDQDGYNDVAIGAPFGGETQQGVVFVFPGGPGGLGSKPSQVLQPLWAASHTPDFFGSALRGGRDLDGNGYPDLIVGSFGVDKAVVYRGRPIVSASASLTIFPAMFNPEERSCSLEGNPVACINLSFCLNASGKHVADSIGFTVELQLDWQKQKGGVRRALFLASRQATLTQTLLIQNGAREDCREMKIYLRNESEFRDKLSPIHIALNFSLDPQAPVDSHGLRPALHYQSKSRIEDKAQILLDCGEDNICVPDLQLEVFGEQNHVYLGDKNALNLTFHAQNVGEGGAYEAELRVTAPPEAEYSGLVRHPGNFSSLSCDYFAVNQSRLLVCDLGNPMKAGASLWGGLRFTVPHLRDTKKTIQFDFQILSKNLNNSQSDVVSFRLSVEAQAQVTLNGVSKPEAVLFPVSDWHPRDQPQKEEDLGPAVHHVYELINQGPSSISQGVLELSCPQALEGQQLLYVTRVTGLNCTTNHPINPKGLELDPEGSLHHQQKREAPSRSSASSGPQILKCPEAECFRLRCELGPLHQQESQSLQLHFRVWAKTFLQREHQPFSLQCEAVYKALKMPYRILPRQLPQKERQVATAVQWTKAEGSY
Sequence (P05556 21-728, chain 2 of 2): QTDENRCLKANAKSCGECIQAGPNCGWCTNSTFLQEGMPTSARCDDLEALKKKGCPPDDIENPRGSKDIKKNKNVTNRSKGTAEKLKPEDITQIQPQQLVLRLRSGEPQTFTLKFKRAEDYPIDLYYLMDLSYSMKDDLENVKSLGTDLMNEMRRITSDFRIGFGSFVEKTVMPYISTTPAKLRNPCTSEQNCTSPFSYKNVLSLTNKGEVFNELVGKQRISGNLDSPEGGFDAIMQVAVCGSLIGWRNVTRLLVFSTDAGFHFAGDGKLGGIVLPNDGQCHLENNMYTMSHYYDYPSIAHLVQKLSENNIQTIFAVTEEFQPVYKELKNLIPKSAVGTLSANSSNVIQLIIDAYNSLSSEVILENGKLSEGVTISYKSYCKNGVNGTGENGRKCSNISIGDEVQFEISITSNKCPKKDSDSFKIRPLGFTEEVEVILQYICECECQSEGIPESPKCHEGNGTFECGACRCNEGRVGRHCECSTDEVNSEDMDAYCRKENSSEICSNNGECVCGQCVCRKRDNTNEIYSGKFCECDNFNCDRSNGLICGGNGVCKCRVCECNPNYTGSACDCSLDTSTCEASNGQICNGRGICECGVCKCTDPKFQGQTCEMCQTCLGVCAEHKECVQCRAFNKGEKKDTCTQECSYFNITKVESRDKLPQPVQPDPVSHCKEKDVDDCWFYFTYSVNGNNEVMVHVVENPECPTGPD
Test: SPR
readoutKind: pKd
Please treat pKd as minus the base-10 logarithm of the molar concentration.

Record aptamer H02-2'F (XNA, 2'-fluoro pyrimidines) RNA: GGUUACCAGCCUUCACUGCGGACGGACAGAGAGUGCAACCUGCCGUGCCGCACCACGGUCGGUCACAC , field pKd: 7.14
